The reported numbers originate from patent US20240180880A1.

tested on: 284 cell lines; experiment: cells; conditions: Homo sapiens, U-87 MG, read-out: Cell Count IC50, U-87 MG; Central Nervous System; Glioma
pIC50: −log10 of the molar value.
Measured Parameter: pIC50

Fill in: pIC50 of CNc1cc(C)nc(Nc2ccc(OC)c(OCCCN3CCCC3)c2)n1 [Compound 205] is ___
5.00 to 6.00

---

system: 284 cell lines; assay: cells; conditions: Homo sapiens, NALM-6, read-out: Cell Count IC50, NALM-6; Hematopoietic; Leukemia
Measured Parameter: IC50

# IC50 lookup, item CNc1cc(C)nc(Nc2ccc(OC)c(OCCCN3CCCC3)c2)n1 [Compound 205]
1 to 10 µM

---

test system: 284 cell lines; assay: cells; conditions: read-out: Cell Count IC50, MT-3; Colon
pIC50: −log10 of the molar value.
Measured Parameter: pIC50

Param item = CNc1cc(C)nc(Nc2ccc(OC)c(OCCCN3CCCC3)c2)n1 [Compound 205] ; retrieve measured pIC50.
6.00 to 7.00

---

test system: 284 cell lines; experiment: cells; conditions: Homo sapiens, CAPAN-1, read-out: Cell Count IC50, Capan-1; Pancreas
Measured Parameter: IC50

Given the entry CNc1cc(C)nc(Nc2ccc(OC)c(OCCCN3CCCC3)c2)n1 [Compound 205] , report its measured IC50.
> 10 µM

---

tested on: 284 cell lines; test: cells; conditions: Homo sapiens, COR-L105, read-out: Cell Count IC50, COR-L105; Lung; NSCLC
Measured Parameter: IC50

What value of IC50 has been recorded for this entry: CNc1cc(C)nc(Nc2ccc(OC)c(OCCCN3CCCC3)c2)n1
1 to 10 µM

---

test system: 284 cell lines; assay: cells; details: Homo sapiens, A101D, read-out: Cell Count IC50
Measured Parameter: IC50

Would you mind telling me what IC50 value was observed for CNc1cc(C)nc(Nc2ccc(OC)c(OCCCN3CCCC3)c2)n1 ?
1 to 10 µM

---

test system: 284 cell lines; experiment: cells; settings: Homo sapiens, SW480, read-out: Cell Count IC50, SW480; Colon
pIC50: −log10 of the molar value.
Measured Parameter: pIC50

Find the recorded pIC50 belonging to CNc1cc(C)nc(Nc2ccc(OC)c(OCCCN3CCCC3)c2)n1 and report it.
5.00 to 6.00

---

tested on: 284 cell lines; experiment: cells; conditions: Homo sapiens, Malme-3M, read-out: Cell Count IC50, MALME3M; Skin; Melanoma
Measured Parameter: IC50

Any idea what its IC50 is? The molecule is CNc1cc(C)nc(Nc2ccc(OC)c(OCCCN3CCCC3)c2)n1
> 10 µM

---

Tested on: 284 cell lines
Assay: cells
Details: read-out: Cell Count IC50, Hs 729; Soft & Connective Tissue; Sarcoma
Description: A screen of 284 cell lines to assess the antiproliferative effect of EHMT2 inhibition was conducted by treating cell lines in 384-well format with a half-log step dilutions of Compound 205 over 10 concentrations with a maximum concentration of 0.1% v/v DMSO. Cells were plated on Day 0 and treated with compound on Day 1. […] Automated fluorescence microscopy was carried out using a Molecular Devices ImageXpress Micro XL high-content imager, and images were collected with a 4× objective. […]
Measured Parameter: IC50

Endpoint output: IC50 of CNc1cc(C)nc(Nc2ccc(OC)c(OCCCN3CCCC3)c2)n1 [Compound 205] . Value?
10 to 100 nM

---

system: 284 cell lines; assay: cells; conditions: Homo sapiens, SU-DHL10, read-out: Cell Count IC50, SU-DHL-10; Hematopoietic; Lymphoma
pIC50: −log10 of the molar value.
Measured Parameter: pIC50

Consider the compound CNc1cc(C)nc(Nc2ccc(OC)c(OCCCN3CCCC3)c2)n1 and give its measured pIC50.
5.00 to 6.00

---

tested on: 284 cell lines; assay: cells; settings: Homo sapiens, SW 954, read-out: Cell Count IC50, SW954; Female GU; Vulva
Measured Parameter: IC50

So what does the record say about IC50 for CNc1cc(C)nc(Nc2ccc(OC)c(OCCCN3CCCC3)c2)n1 [Compound 205] ?
> 10 µM

---

test system: 284 cell lines; experiment: cells; conditions: Homo sapiens, Hs 294T, read-out: Cell Count IC50, Hs 294T; Skin; Melanoma
pIC50: −log10 of the molar value.
Measured Parameter: pIC50

Quick one: pIC50 of CNc1cc(C)nc(Nc2ccc(OC)c(OCCCN3CCCC3)c2)n1 [Compound 205] ?
5.00 to 6.00

---

tested on: 284 cell lines; assay: cells; details: Homo sapiens, OVCAR-3, read-out: Cell Count IC50, OVCAR3; Female GU; Ovary
pIC50: −log10 of the molar value.
Measured Parameter: pIC50

# input compound: CNc1cc(C)nc(Nc2ccc(OC)c(OCCCN3CCCC3)c2)n1 ; wanted: its pIC50
< 5.00

---

tested on: 284 cell lines; assay: cells; settings: Homo sapiens, Capan-2, read-out: Cell Count IC50, Capan-2; Pancreas
Measured Parameter: IC50

# returns recorded IC50 (system: 284 cell lines) for CNc1cc(C)nc(Nc2ccc(OC)c(OCCCN3CCCC3)c2)n1
> 10 µM

---

system: 284 cell lines; assay: cells; conditions: Homo sapiens, SU-DHL-4, read-out: Cell Count IC50, SU-DHL-4; Hematopoietic; Lymphoma
Measured Parameter: IC50

Reported IC50 for 284 cell lines, given CNc1cc(C)nc(Nc2ccc(OC)c(OCCCN3CCCC3)c2)n1 [Compound 205] ?
0.1 to 1 µM

---

test system: 284 cell lines; assay: cells; conditions: read-out: Cell Count IC50, U266B1; Hematopoietic; Myeloma
Measured Parameter: IC50

Consider the compound shown here: CNc1cc(C)nc(Nc2ccc(OC)c(OCCCN3CCCC3)c2)n1 [Compound 205] What is its recorded IC50?
1 to 10 µM

---

Tested on: 284 cell lines
Test: cells
Settings: read-out: Cell Count IC50, RD; Soft & Connective Tissue; Sarcoma
Protocol: A screen of 284 cell lines to assess the antiproliferative effect of EHMT2 inhibition was conducted by treating cell lines in 384-well format with a half-log step dilutions of Compound 205 over 10 concentrations with a maximum concentration of 0.1% v/v DMSO. Cells were plated on Day 0 and treated with compound on Day 1. […] Automated fluorescence microscopy was carried out using a Molecular Devices ImageXpress Micro XL high-content imager, and images were collected with a 4× objective. […]
Measured Parameter: IC50

What value of IC50 has been recorded for this entry: CNc1cc(C)nc(Nc2ccc(OC)c(OCCCN3CCCC3)c2)n1
1 to 10 µM

---

tested on: 284 cell lines; assay: cells; details: Homo sapiens, CHP-212, read-out: Cell Count IC50, CHP-212; Central Nervous System; Neuroblastoma
pIC50: −log10 of the molar value.
Measured Parameter: pIC50

Quick one: pIC50 of CNc1cc(C)nc(Nc2ccc(OC)c(OCCCN3CCCC3)c2)n1 [Compound 205] ?
6.00 to 7.00

---

Test system: 284 cell lines
Assay: cells
Conditions: Homo sapiens, CAKI-2, read-out: Cell Count IC50, Caki-2; Kidney
Description: A screen of 284 cell lines to assess the antiproliferative effect of EHMT2 inhibition was conducted by treating cell lines in 384-well format with a half-log step dilutions of Compound 205 over 10 concentrations with a maximum concentration of 0.1% v/v DMSO. Cells were plated on Day 0 and treated with compound on Day 1. […] Automated fluorescence microscopy was carried out using a Molecular Devices ImageXpress Micro XL high-content imager, and images were collected with a 4× objective. […]
Measured Parameter: IC50

I'm curious: which IC50 was measured for CNc1cc(C)nc(Nc2ccc(OC)c(OCCCN3CCCC3)c2)n1 tested on 284 cell lines?
1 to 10 µM

---

Tested on: 284 cell lines
Assay: cells
Settings: Homo sapiens, RPMI-8226, read-out: Cell Count IC50, RPMI 8226; Hematopoietic; Myeloma
Procedure: A screen of 284 cell lines to assess the antiproliferative effect of EHMT2 inhibition was conducted by treating cell lines in 384-well format with a half-log step dilutions of Compound 205 over 10 concentrations with a maximum concentration of 0.1% v/v DMSO. Cells were plated on Day 0 and treated with compound on Day 1. […] Automated fluorescence microscopy was carried out using a Molecular Devices ImageXpress Micro XL high-content imager, and images were collected with a 4× objective. […]
Measured Parameter: IC50

# get_value(readout='IC50', item= CNc1cc(C)nc(Nc2ccc(OC)c(OCCCN3CCCC3)c2)n1 )
1 to 10 µM

---

System: 284 cell lines
Experiment: cells
Settings: Homo sapiens, Daoy, read-out: Cell Count IC50, Daoy; Central Nervous System; Medulloblastoma
Procedure: A screen of 284 cell lines to assess the antiproliferative effect of EHMT2 inhibition was conducted by treating cell lines in 384-well format with a half-log step dilutions of Compound 205 over 10 concentrations with a maximum concentration of 0.1% v/v DMSO. Cells were plated on Day 0 and treated with compound on Day 1. […] Automated fluorescence microscopy was carried out using a Molecular Devices ImageXpress Micro XL high-content imager, and images were collected with a 4× objective. […]
pIC50: −log10 of the molar value.
Measured Parameter: pIC50

Recall the recorded pIC50 for CNc1cc(C)nc(Nc2ccc(OC)c(OCCCN3CCCC3)c2)n1 [Compound 205] with 284 cell lines and state it.
5.00 to 6.00
